# assay_notes: Human HepG2 cell viability assay in 384 well format
# Assay type: toxicity, cell-based
# Parameters: dose 125 nL, time 70.5 hour; concentration not given beside the values
# test_parameters: HepG2 cells, read-out: Inhibition
Consider the following compounds and their measured cytotoxicity at 70.5 h readings.
measured_metric: cytotoxicity at 70.5 h (%)

INSERT INTO results (compound, assay_value) VALUES
  ('O=C(NC[C@H]1OC[C@@H](NC2CCC2)[C@@H]1O)Nc1ccccc1', 16.4),
  ('COc1cc(N2C[C@H]3CN(Cc4ccccn4)C[C@H]3C2)ncn1', -4.15),
  ('CCNc1cc2c(nn1)CCN(C(=O)c1cc(C)n(C3CC3)c1C)C2', -0.806),
  ('CN(C)c1cc(CNC(=O)c2cc(Cl)ccn2)ccn1', -11.8),
  ('CC1(C)CC(N2CCN(C3CCCC3)C(CCO)C2)CC(C)(C)C1 (centres undefined)', -8.65),
  ('Cc1nc(C)n(CC2CCCN(CC(=O)Nc3c(C)n[nH]c3C)C2)n1 (centres undefined)', -7.16),
  ('CN1CCOC(CNCC(=O)NCCCc2ccccc2)C1 (centres undefined)', 4.87),
  ('O=C1CCC2(CCCN(C(=O)Cc3ccccc3)C2)N1 (centres undefined)', 5.57),
  ('c1ccc(OC2COC3(CCN(Cc4ccccn4)CC3)C2)cc1 (centres undefined)', 25.2),
  ('Cn1ncc2c1NC(=O)CSC2c1ccc2c(c1)OCO2 (centres undefined)', 10.3),
  ('Cc1ccc(O)c(C(=O)N2CCOCC2c2c(C)nn(C)c2C)c1 (centres undefined)', -2.1),
  ('CN(CCOc1ccc(F)cc1)S(=O)(=O)c1cnn(C)c1', -8.4),
  ('Cc1ccc(C(O)CN2CCN(Cc3nccn3C)CC2)cc1C (centres undefined)', 2),
  ('CC(C)c1nc(CN2CCOCC2)cs1', 7.98),
  ('O=S(=O)(NCC1COc2ccccc2C1)N1CCOCC1 (centres undefined)', -3.96),
  ('CC(NC(=O)NCCCn1cccn1)c1ccccn1 (centres undefined)', -5.57),
  ('CCOc1ccc(Cl)c(C(=O)N2CCN(c3cnccn3)CC2)n1', 38.9),
  ('Cc1[nH]c2c(F)cccc2c1CC(=O)N1CCC(NS(C)(=O)=O)CC1', -7.49),
  ('Cc1ccc2c(c1)CN(C(=O)c1cnc(C)cn1)C(CN(C)C)CO2 (centres undefined)', 14.1),
  ('O=C(NC[C@]1(O)CCN(Cc2ccsc2)C[C@H]1O)c1c[nH]cn1', -9.1),
  ('O=C(NCC1(O)CCOC1)NCC1(c2ccccc2Cl)CCC1 (centres undefined)', 0.471),
  ('CC(O)CN1CCN(CCOCC(F)(F)F)CC1 (centres undefined)', -7.92),
  ('CC(=O)Nc1c(C)noc1/C=C\c1ccc(S(=O)(=O)N2CCCC2)cc1', -3.48),
  ('O=C1O[C@@H]2CN(Cc3ccccn3)C[C@@H]2N1CCCc1ccc(F)cc1', 6.23),
  ('Cc1nnsc1C(=O)N1CCN(C(=O)C2CCC2)[C@@H]2CS(=O)(=O)C[C@@H]21', -10.8),
  ('CCc1nnc2n1CCN(C(=O)c1cnc3c(cnn3C(C)C)c1)C2', -8.43),
  ('CC(Cc1cccc(Cl)c1)NC(=O)Nc1cnn(CC(N)=O)c1 (centres undefined)', -1.82),
  ('O=C(CCN1CCOC(Cn2cccn2)C1)NC1CCCCC1 (centres undefined)', -0.965),
  ('Cc1cnc(C(=O)N2CC[C@H]3C[C@@H](c4nc(C)cs4)O[C@@H]3C2)cn1', 7.61),
  ('CC(C)[C@@H]1CN(c2ncc(F)cn2)C[C@H]1NS(=O)(=O)N(C)C', 15.6),
  ('CC(C)(C)c1nnc(CSc2ccccn2)o1', -6.49),
  ('CCCOc1cccc(C(=O)Oc2cc(=O)n3cccc(C)c3n2)c1', -12.8),
  ('Cc1ccsc1CN(Cc1ncccc1C(=O)O)C1CC1', -5.62),
  ('Cc1nnc(CN(Cc2ccccc2C(F)(F)F)C2CC2)o1', -10.9);
